Assign pKi to each entry below.
Assayed target: Adenosine receptor A1 (Rattus norvegicus)
Sequence (P25099 whole entry): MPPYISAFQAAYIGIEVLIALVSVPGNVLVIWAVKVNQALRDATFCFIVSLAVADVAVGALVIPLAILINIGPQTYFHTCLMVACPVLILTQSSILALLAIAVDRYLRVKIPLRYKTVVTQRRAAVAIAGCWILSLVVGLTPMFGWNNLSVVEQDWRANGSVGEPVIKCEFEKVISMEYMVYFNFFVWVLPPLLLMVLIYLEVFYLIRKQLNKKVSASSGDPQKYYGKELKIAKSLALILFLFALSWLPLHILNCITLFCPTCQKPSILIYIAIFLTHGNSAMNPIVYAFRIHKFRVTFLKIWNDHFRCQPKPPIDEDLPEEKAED
Test: Displacement of [3H]CCPA from adenosine A1 receptor in rat brain cortex
Format: tissue-based
Answers are plain numbers, as −log10 of the molar value.

Mol smiles: C#CCn1c(=O)c2c(nc3n2CCCN3Cc2ccccc2)n(C)c1=O
pKi: 6.87

Mol smiles: C#CCn1c(=O)c2c(nc3n2CCCN3c2cc(OC)cc(OC)c2)n(C)c1=O
pKi: 6.64

Mol smiles: CCn1c(=O)c2c(nc3n2CCCN3CCN2CCCCC2)n(CC)c1=O
pKi: 5.97

Mol smiles: Cn1c(=O)c2c(nc3n2CCCN3Cc2ccc(Cl)c(Cl)c2)n(C)c1=O
pKi: 5.40

q: Bench note: what pKi did "Cn1c(=O)c2c(nc3n2CCCN3Cc2cccc(Cl)c2)n(C)c1=O" show?
a: 6.36

Entry source: ChEMBL document CHEMBL3091303
